B1: library; numbered along this chain (parent)
chain: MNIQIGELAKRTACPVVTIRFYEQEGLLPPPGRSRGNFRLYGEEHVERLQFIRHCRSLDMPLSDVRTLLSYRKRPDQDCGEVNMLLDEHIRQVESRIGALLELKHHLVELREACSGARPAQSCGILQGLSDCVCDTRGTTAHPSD

variants of: B1; test: sfGFP reporter fluorescence (15 h) (µM FITC); higher = stronger transcriptional activation; conditions: library round: Round 0; ligand: 30 µM Zn
quantity: sfGFP reporter fluorescence
Please reply with the number alone, leaving off any unit.

[Q] Quick one: sfGFP reporter fluorescence of E94L ?
[A] 0.583

[Q] Same read-out for P61I ?
[A] 0.112

[Q] Same read-out for S122A ?
[A] 0.687

[Q] Same read-out for L27F ?
[A] 0.493

[Q] Same read-out for V16P ?
[A] 1.53

[Q] Same read-out for T139A ?
[A] 0.76

[Q] Same read-out for L107Y ?
[A] 0.209

[Q] Same read-out for L8A ?
[A] 0.313

[Q] Same read-out for P15F ?
[A] 0.256

[Q] Same read-out for I19A ?
[A] 0.0806

[Q] Same read-out for N83S ?
[A] 0.333

[Q] Same read-out for I125Y ?
[A] 0.0552

[Q] Same read-out for G6C ?
[A] 0.0621

[Q] Same read-out for E112G ?
[A] 1.23

[Q] Same read-out for C55N ?
[A] 0.057

[Q] Same read-out for L69A ?
[A] 0.225

[Q] Same read-out for L85G ?
[A] 0.0603

[Q] Same read-out for L68I ?
[A] 0.214

[Q] Same read-out for V46E ?
[A] 0.724

[Q] Same read-out for D135H ?
[A] 2.14

[Q] Same read-out for R33P ?
[A] 0.064
